target: human glucagon receptor (human, UniProt P47871); test: cell-based or functional assay
Starred links: 1 amine or outer side, 2 acyl side, 3 side chain; linkers in the order of their positions; H or OH if unused. Non-standard residues stand in square brackets, D forms with d. Groups on a side chain read outwards from the residue. Primed or numbered codes have the meaning given here. No end group written: not given here. *: point of attachment. C20 diacid = O=C(O)CCCCCCCCCCCCCCCCCCC(=O)*; Dip = N[C@H](C(=O)O)C(c1ccccc1)c1ccccc1; γGlu = O=C(O)[C@H](CCC(=O)[*:2])N[*:1]; Stearoyl = CCCCCCCCCCCCCCCCCC(=O)*; Palmitoyl = CCCCCCCCCCCCCCCC(=O)*; αMeF = C[C@](N)(Cc1ccccc1)C(=O)O; Myristoyl = CCCCCCCCCCCCCC(=O)*; (PEG)2 = polyethylene glycol 2; PEG2′ = polyethylene glycol 2; αMeS = C[C@](N)(CO)C(=O)O; AEEA = NCCOCCOCC(=O)O; Aib = CC(C)(N)C(=O)O
Known cAMP production, hGluc-R EC50 (pM) of a selection of binders

Solved cases below.
>  <binder>
H[Aib]QGTFTSDVSK[αMeF]LDSK([γGlu-γGlu-AEEA-AEEA-γGlu-γGlu-C20 diacid])RAQDFVRWLLE[Aib]G-OH [Peptide 139]

>  <cAMP production, hGluc-R EC50 (pM)>
984 pM

$$$$
>  <binder>
H[αMeS]QGS[αMeF]TSDVSKILDSK([PEG2′-PEG2′-γGlu-γGlu-Palmitoyl])AAQD[αMeF]VQ[Aib]IINT-NH2 [Peptide 131]

>  <cAMP production, hGluc-R EC50 (pM)>
17.8 pM

$$$$
>  <binder>
HSQGS[αMeF]TSDVSK[αMeF]LDSK([PEG2′-PEG2′-γGlu-γGlu-Palmitoyl])AAQD[αMeF]VQ[Aib]LEAGG-NH2 [Peptide 79]

>  <cAMP production, hGluc-R EC50 (pM)>
10.7 pM

$$$$
>  <binder>
HSQGS[αMeF]TSDVSK[Dip]LDSK([γGlu-(PEG)2-γGlu-(PEG)2-Stearoyl])AAQD[αMeF]VE[Aib]IINT-NH2 [Peptide 60]

>  <cAMP production, hGluc-R EC50 (pM)>
21.1 pM

$$$$

Exercise: If you can, please state the reported cAMP production, hGluc-R EC50 (pM) value of H[Aib]QGS[αMeF]TSDVSKILDSK([(PEG)2-(PEG)2-γGlu-Stearoyl])AAQD[αMeF]VQ[Aib]IINT-NH2 [Peptide 127] .
Key: 12.6 pM

Exercise: For the binder shown here, HSQGS[αMeF]TSDVSKILDSK([(PEG)2-(PEG)2-γGlu-Palmitoyl])AAQD[αMeF]VQ[Aib]IINT-NH2 [Peptide 121] , give the reported cAMP production, hGluc-R EC50 (pM).
Key: 1.2 pM

Exercise: Sample HSQGS[αMeF]TSDVSK(Ac)[Aib]LDSK([(PEG)2-(PEG)2-γGlu-γGlu-Stearoyl])AAQD[αMeF]VQ[Aib]IAN-NH2 [Peptide 110] — what was its cAMP production, hGluc-R EC50 (pM)?
Key: 48.5 pM

Exercise: Param item = HSQGS[αMeF]TSDVSKILDSK([(PEG)2-(PEG)2-γGlu-Myristoyl])AAQD[αMeF]VQ[Aib]IINT-NH2 [Peptide 122] ; retrieve measured cAMP production, hGluc-R EC50 (pM).
Key: 0.857 pM

Exercise: Could you tell me which cAMP production, hGluc-R EC50 (pM) is on file for HSQGS[αMeF]TSDVSKILDSK([(PEG)2-(PEG)2-γGlu-Stearoyl])AAQD[αMeF]VQ[Aib]IINT-NH2 [Peptide 120] ?
Key: 2.62 pM

Data provenance: patent US12630600B2
